These data points were gathered from PubChem BioAssay (NCI).

- System: SK-OV-3 ovarian
- assay.explanation: NCI-60 one-dose screen, 48 h (100 = growth as untreated, 0 = no growth, -100 = all killed)
- settings: 10 µM
This is part of a sample that, as a whole, favours compounds with a hit. Of some 83,000 tested, about 20% had one in any assay.
Response field label: string, one of 1 (yes) (growth strictly below 60%) or 0 (no).

Past entries and their recorded results:
O=C(Nc1cccc(C(F)(F)F)c1)c1cncc(C#Cc2cnc3cccnn23)c1 = 0 (no)
N#C/C(=C\c1ccc(N(c2ccccc2)c2ccccc2)cc1)C(N)=O = 1 (yes)
COc1cccc(C(N)=Nc2ccc(OCCCCCCn3cncn3)cc2)c1 = 1 (yes)
O=c1oc2ccc(-c3ccc(F)cc3F)cc2c(=O)n1-c1ccc(Cl)c(C(F)(F)F)c1 = 1 (yes)
Cn1cc(-c2cc(N)n3nc(-c4c[nH]c5ccc(Br)cc45)cc3n2)c2cccnc21 = 1 (yes)

Given CCOC(=O)C(Cc1ccccc1)N1C(=O)/C(=C/N2N=C(c3ccc(OC)cc3)CC2c2ccc3ccccc3c2)SC1=S (centres undefined) , is recorded growth strictly lower than 60%?
1 (yes)

Given CC(C)Sc1nc(NC2CC2)c(C#N)c(-c2ccccc2)n1 , is recorded growth strictly lower than 60%?
0 (no)

Given CCOC(=O)CNC(=O)CN(Cc1ccccc1)C(=O)[C@@]1(C)CCC[C@]2(C)[C@H]3C[C@H]4C(C(C)C)=C[C@]3(CC[C@H]21)[C@@H]1C(=O)OC(=O)[C@@H]14 , is recorded growth strictly lower than 60%?
0 (no)

Given COc1ccc2nc(Cl)c(-c3cc(-c4ccccc4)nc(=O)[nH]3)cc2c1 , is recorded growth strictly lower than 60%?
0 (no)

Given CC(=O)Nc1ccc(-n2cnc3cc(-c4ccc(O)cc4)ccc32)cc1C , is recorded growth strictly lower than 60%?
0 (no)

Given CN1C(=O)N(C)C2SC(N/N=C/c3ccccc3F)=NC21 (centres undefined) , is recorded growth strictly lower than 60%?
0 (no)

Given Cc1cc(C)nc(NS(=O)(=O)c2ccc(N/C(N)=N/c3nccc(-c4ccccc4)n3)cc2)n1 , is recorded growth strictly lower than 60%?
1 (yes)

Given COc1ccccc1[C@H]1C(C(=O)c2ccc(Cl)cc2)C2(N[C@@H]1c1ccccc1)C(=O)Nc1ccc(Cl)cc12 (some centres undefined) , is recorded growth strictly lower than 60%?
1 (yes)
